Values were extracted from patent US11807649B2.

# Tested on: Ba/F3 ERBB2 YVMA
# Procedure Summary: Cell viability assay (CellTiter Glo), Ba/F3 cells engineered to express ERBB2 YVMA
# Assay type: cell-based
# Test Settings: Mus musculus, BaF3, 72 h, Ba/F3 cells expressing human ERBB2 YVMA mutant; 72 hours; cell viability, CellTiter Glo; read-out: Ba/F3 ERBB2 YVMA, IC50
pIC50: −log10 of the molar value.
hey, just use YES if measured pIC50 is less than 8, otherwise NO

| Molecule | Answer Label |
| --- | --- |
| CN(C)C/C=C/C(=O)N1CCN2C[C@H]1COc1cc3ncnc(Nc4ccc(Oc5ccn6ncnc6c5)cc4)c3nc12 [Compound 31] | YES |
| Cc1cc(Nc2ncnc3cc4c(nc23)N2CCN(C(=O)/C=C/CN(C)C)[C@H](CO4)C2)ccc1Oc1cccnc1 [Compound 25] | NO |
| CN(C)C/C=C/C(=O)N1CCN2C[C@H]1COc1cc3ncnc(Nc4cc(Cl)c(Oc5ccn6ncnc6c5)cc4F)c3nc12 [Compound 43] | NO |
| C=C(F)C(=O)N1CCN2C[C@H]1COc1cc3ncnc(Nc4ccc(Oc5ccn6ncnc6c5)c(C)c4)c3nc12 [Compound 23] | YES |
| Cc1cc(Nc2ncnc3cc4c(nc23)N2CCN(C(=O)/C=C/CN(C)C)[C@@H](CO4)C2)ccc1Oc1ccn2ncnc2c1 [Compound 15] | YES |
| Cc1cc(Nc2ncnc3cc4c(nc23)N2CCN(C(=O)/C=C/CN(C)C)[C@H](CO4)C2)ccc1Oc1cncc(F)c1 [Compound 51] | NO |
| CN(C)C/C=C/C(=O)N1CCN2C[C@H]1COc1cc3ncnc(Nc4ccc(Oc5ccn6ncnc6c5)c(F)c4)c3nc12 [Compound 39] | NO |
| Cc1cc(Nc2ncnc3cc4c(nc23)N2CCN(C(=O)/C=C/CN(C)C)C(CCO4)C2)ccc1Oc1ccn2ncnc2c1 (stereo not shown) [Compound 52] | YES |

---

Reported pIC50 values for the following molecules.
# System Tested: phosphorylated EGFR (pEGFR) (Homo sapiens (Human), UniProt P00533)
# Sequence (P00533 25-1210): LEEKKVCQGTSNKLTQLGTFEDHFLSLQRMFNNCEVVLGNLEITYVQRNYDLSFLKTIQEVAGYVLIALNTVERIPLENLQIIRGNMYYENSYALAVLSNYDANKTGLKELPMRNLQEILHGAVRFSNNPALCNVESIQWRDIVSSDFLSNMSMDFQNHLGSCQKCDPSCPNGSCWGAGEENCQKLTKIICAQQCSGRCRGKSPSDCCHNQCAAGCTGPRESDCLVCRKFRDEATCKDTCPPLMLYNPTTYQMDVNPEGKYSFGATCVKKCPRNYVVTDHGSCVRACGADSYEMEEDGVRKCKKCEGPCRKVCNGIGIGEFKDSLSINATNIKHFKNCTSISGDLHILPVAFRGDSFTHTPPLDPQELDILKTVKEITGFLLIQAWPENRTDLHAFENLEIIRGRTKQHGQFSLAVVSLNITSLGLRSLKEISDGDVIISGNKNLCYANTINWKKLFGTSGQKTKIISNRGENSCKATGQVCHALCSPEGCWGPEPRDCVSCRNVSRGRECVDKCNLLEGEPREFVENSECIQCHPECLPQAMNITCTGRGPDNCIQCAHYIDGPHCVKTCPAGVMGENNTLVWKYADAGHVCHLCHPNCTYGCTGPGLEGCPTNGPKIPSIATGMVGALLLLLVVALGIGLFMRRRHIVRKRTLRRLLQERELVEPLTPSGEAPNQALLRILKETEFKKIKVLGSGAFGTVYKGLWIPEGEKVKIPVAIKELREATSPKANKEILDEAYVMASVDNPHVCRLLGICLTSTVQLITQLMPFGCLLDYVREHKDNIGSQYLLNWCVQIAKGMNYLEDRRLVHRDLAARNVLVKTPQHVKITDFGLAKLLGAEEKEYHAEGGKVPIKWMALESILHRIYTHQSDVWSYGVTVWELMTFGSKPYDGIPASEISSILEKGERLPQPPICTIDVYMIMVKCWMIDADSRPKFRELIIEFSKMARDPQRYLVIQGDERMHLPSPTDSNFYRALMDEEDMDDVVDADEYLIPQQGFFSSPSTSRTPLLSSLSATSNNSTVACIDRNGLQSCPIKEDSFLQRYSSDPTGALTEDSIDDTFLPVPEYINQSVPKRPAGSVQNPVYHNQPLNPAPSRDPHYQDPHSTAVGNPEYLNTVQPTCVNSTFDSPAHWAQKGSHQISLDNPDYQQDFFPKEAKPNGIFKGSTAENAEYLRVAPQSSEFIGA
# Procedure Summary: Detection of phosphorylated EGFR (pEGFR) in EGF-stimulated A431 cells (AlphaLISA)
# Test Settings: A431 cells (10% FBS), 4 hours incubation, then EGF 30 ng/mL for 10 minutes
pIC50: −log10 of the molar value.
Property Name: pIC50

| Molecule | Property Name | Readout Relation | Recorded Measurement |
| --- | --- | --- | --- |
| [2H]C([2H])([2H])N(C([2H])([2H])[2H])C([2H])([2H])/C=C/C(=O)N1CCN2C[C@H]1COc1cc3ncnc(Nc4cc(C)c(Oc5ccn6ncnc6c5)cc4F)c3nc12 | pIC50 | = | 5.86 |
| C=CC(=O)N1CCN2C[C@H]1COc1cc3ncnc(Nc4ccc(Cc5ccn6ncnc6c5)c(C)c4)c3nc12 | pIC50 | = | 5.80 |
| [2H]C([2H])([2H])N(C/C=C/C(=O)N1CCN2C[C@H]1COc1cc3ncnc(Nc4ccc(Oc5ccn6ncnc6c5)c(C)c4)c3nc12)C([2H])([2H])[2H] | pIC50 | = | 5.79 |
| C=CC(=O)N1CCN2C[C@@H]1COc1cc3ncnc(Nc4ccc(Cc5ccn6ncnc6c5)c(C)c4)c3nc12 | pIC50 | < | 5.00 |
| Cc1cc(Nc2ncnc3cc4c(nc23)N2CCCN(C(=O)/C=C/CN(C)C)C(CO4)C2)ccc1Oc1ccn2ncnc2c1 (racemic) | pIC50 | < | 5.00 |
| [2H]C([2H])([2H])N(C/C=C/C(=O)N1CCN2C[C@H]1COc1cc3ncnc(Nc4cc(C)c(Oc5ccn6ncnc6c5)cc4F)c3nc12)C([2H])([2H])[2H] | pIC50 | = | 5.61 |
| [2H]C([2H])(/C=C/C(=O)N1CCN2C[C@H]1COc1cc3ncnc(Nc4cc(C)c(Oc5ccn6ncnc6c5)cc4F)c3nc12)N(C)C | pIC50 | = | 6.06 |

---

# System: Ba/F3 ERBB2 YVMA
# Procedure Summary: Cell viability assay (CellTiter Glo), Ba/F3 cells engineered to express ERBB2 YVMA
# Format: cell-based
# Test Settings: Mus musculus, BaF3, 72 h, Ba/F3 cells expressing human ERBB2 YVMA mutant; 72 hours; cell viability, CellTiter Glo; read-out: Ba/F3 ERBB2 YVMA, IC50

| Mol Smiles | IC50 |
| --- | --- |
| Cc1cc(Nc2ncnc3cc4c(nc23)N2CCN(C(=O)/C=C/C3(F)CN(C)C3)[C@H](CO4)C2)ccc1Oc1ccn2ncnc2c1 | 117 nM |
| Cc1cc(Nc2ncnc3cc4c(nc23)N2CCN(C(=O)/C=C/CN(C)C)[C@H](CO4)C2)ccc1Oc1ccc2c(c1)ncn2C | 15.8 nM |
| Cc1cc(Nc2ncnc3cc4c(cc23)N2CCN(C(=O)/C=C/CN(C)C)[C@H](CO4)C2)ccc1Oc1ccc2c(c1)ncn2C | 78.7 nM |
| Cc1cc(Nc2ncnc3cc4c(nc23)N2CCN(C(=O)/C=C/[C@H](C)N(C)C)[C@H](CO4)C2)c(F)cc1Oc1ccn2ncnc2c1 | 13 nM |
| CC#CC(=O)N1CCN2C[C@H]1COc1cc3ncnc(Nc4ccc(Oc5ccn6ncnc6c5)c(C)c4)c3cc12 | 44 nM |

---

# Test system: Ba/F3 ERBB2 YVMA
# Procedure Summary: Cell viability assay (CellTiter Glo), Ba/F3 cells engineered to express ERBB2 YVMA
# Format: cell-based
# Test Settings: Mus musculus, BaF3, 72 h, Ba/F3 cells expressing human ERBB2 YVMA mutant; 72 hours; cell viability, CellTiter Glo; read-out: Ba/F3 ERBB2 YVMA, IC50
pIC50: −log10 of the molar value.
A collection of compounds and their measured pIC50

| Mol Smiles | pIC50 |
| --- | --- |
| Cc1cc(Nc2ncnc3cc4c(nc23)N2CCN(C(=O)/C=C/CN(C)C)[C@H](CO4)C2)ccc1Oc1ccn2ncnc2c1 | 8.15 |
| [2H]C([2H])([2H])N(C([2H])([2H])[2H])C([2H])([2H])/C=C/C(=O)N1CCN2C[C@H]1COc1cc3ncnc(Nc4cc(C)c(Oc5ccn6ncnc6c5)cc4F)c3nc12 | 8.19 |
| Cc1cc(Nc2ncnc3cc4c(nc23)N2CCN(C(=O)/C=C/CN(C)C)[C@H](CO4)C2)c(F)cc1Oc1cncc(F)c1 | 8.04 |
| Cc1cc(Nc2ncnc3cc4c(nc23)N2CCN(C(=O)/C=C/[C@H]3CCCN3C)[C@H](CO4)C2)ccc1Oc1ccn2ncnc2c1 | 7.97 |
| Cc1cc(Nc2ncnc3cc4c(nc23)N2CCN(C(=O)/C=C/CN(C)C)[C@H](CO4)C2)c(F)cc1Oc1ccn2ncnc2c1 | 8.19 |
